- System: MCF-7 cells
- experimental details: In vitro cell proliferation assay (WST assay)
- Type: cell-based
- study conditions: total incubation time 72 h, viable cells by WST-1 reagent
observed property: IC50 (nM)
Supply the numeric figure in nM, leaving out any unit text.

stdin: Would you kindly share the measured IC50 for O=C1Nc2c(ccc(F)c2F)C1(c1ccc(O)cc1)C1CCCCC1 (single isomer, unassigned) [Compound 1027] ?
stdout: 3.9

###

- System: MCF-7 cells
- experimental details: In vitro cell proliferation assay (WST assay)
- Assay type: cell-based
- study conditions: Homo sapiens, MCF7, 72 h, total incubation time 72 h, viable cells by WST-1 reagent
observed property: IC50 (nM)

As a guide, the following entries are already answered.
1. O=C1Nc2c(ccc(F)c2F)C1(c1ccc(O)cc1)C1CCCCCC1 (stereo not shown) = 3.4
2. COc1cc(C)c2c(c1)C(c1ccc(O)cc1)(C1CCCCC1)C(=O)N2 (stereo not shown) = 10
3. COc1ccc2c(c1C)NC(=O)C2(c1ccc(O)cc1)C1CCCCCC1 (stereo not shown) = 4.7
4. O=C1Nc2c(Br)cccc2C1(c1ccc(O)cc1)C1CCCCC1 (stereo not shown) = 6.8

[A] O=C1Nc2c(ccc(F)c2F)C1(c1ccc(O)cc1)c1ccc(O)cc1 [Reference compound, reference compound]
[B] Cc1c(F)ccc2c1NC(=O)C2(c1ccc(O)cc1)C1CCCCC1 (stereo not shown)
[C] Cc1ccc2c(c1Cl)NC(=O)C2(c1ccc(O)cc1)C1CCCCCC1 (stereo not shown)
[D] O=C1Nc2c(ccc(F)c2F)C1(c1ccncc1)c1ccc(O)cc1 (stereo not shown)
stdin: Put the entries in order of IC50, starting with the largest number. Provide the ranking by listing each label in its place in the requested order.
stdout: D, A, B, C
(D: 34.5 nM, A: 8.4 nM, B: 5.7 nM, C: 3.5 nM)

[P] O=C1Nc2c(ccc(F)c2F)C1(c1ccc(O)cc1)C1CCCCC1 (stereo not shown)
[Q] Cc1ccc2c(c1Br)NC(=O)C2(c1ccc(O)cc1)C1CCCCC1 (stereo not shown)
stdin: Recorded IC50 values differ for P and Q ; which one is higher? Provide the label of your selected option as the answer.
stdout: Q

###

- Tested on: MCF-7 cells
- experimental details: In vitro cell proliferation assay (WST assay)
- Format: cell-based
- study conditions: Homo sapiens, MCF7, 72 h, total incubation time 72 h, viable cells by WST-1 reagent
observed property: IC50 (nM)

As a guide, the following entries are already answered.
1. O=C1Nc2c(ccc(F)c2F)C1(c1ccc(O)cc1)c1ccc(F)c(F)c1 (stereo not drawn) [Compound 1022] = 5.2
2. Cc1ccc2c(c1F)NC(=O)C2(c1ccc(O)cc1)C1CCCCCC1 (stereo not drawn) [Compound 1034] = 9.1
3. Cc1ccc2c(c1C)NC(=O)C2(c1ccc(O)cc1)C1CCCCCC1 (stereo not drawn) [Compound 1043] = 19.1
4. Cc1ccc(C2(c3ccc(O)cc3)C(=O)Nc3c2ccc(F)c3F)cc1F (stereo not drawn) [Compound 1023] = 4
5. COc1ccc2c(c1C)NC(=O)C2(c1ccc(O)cc1)C1CCCCC1 (stereo not drawn) [Compound 1046] = 12.6
6. O=C1Nc2c(C(F)(F)F)cccc2C1(c1ccc(O)cc1)C1CCCCC1 (stereo not drawn) [Compound 1021] = 17.5

[1] Cc1ccc2c(c1C)NC(=O)C2(c1ccc(O)cc1)C1CCCCC1 (stereo not drawn) [Compound 1025]
[2] O=C1Nc2c(ccc(F)c2F)C1(c1ccc(O)cc1)c1ccc2ccccc2c1 (stereo not drawn) [Compound 1033]
stdin: Recorded IC50 values differ for 1 and 2 ; which one is higher? Provide the label of your selected option as the answer.
stdout: 1

These measurements were taken from patent US20100227863A1.
